# System: Klebsiella pneumonia
# procedure text: MIC against Gram-negative bacteria: Klebsiella pneumonia
# Assay type: cell-based
# condition parameters: Klebsiella pneumonia; 5×10^5 CFU/mL; 10 h cultivation at 37° C.
property measured: MIC against K. pneumonia (µg/mL)
Write down the numeric answer in µg/mL and omit the unit.

Look over these answered cases.
>  <substance>
PRT1481 (PVNLCKPSPCMNEGSCVLQNGSYRCKCRDGWEGPHCE; listed as Homo sapiens)

>  <unit abbrev>
µg/mL

>  <MIC against K. pneumonia>
12.5

$$$$
>  <substance>
PRT1408 (NEICSVDCGSHGVCMGGTCRCEEGWTGPACNQ; listed as Homo sapiens)

>  <unit abbrev>
µg/mL

>  <MIC against K. pneumonia>
12.5

$$$$
>  <substance>
PRT1420 (GAWDCSVENGGCEHACNAIPGAPRCQCPAGAALQADGRSCT; listed as Homo sapiens)

>  <unit abbrev>
µg/mL

>  <MIC against K. pneumonia>
12.5

$$$$
>  <substance>
PRT1389 (PEEQCIDPTCFGHGTCIMGVCICVPGYKGEICE; listed as Homo sapiens)

>  <unit abbrev>
µg/mL

>  <MIC against K. pneumonia>
12.5

$$$$
>  <substance>
PRT1364 (GELKCPNGCSGHGRCVNGQCVCDEGYTGEDCS; listed as Homo sapiens)

>  <unit abbrev>
µg/mL

>  <MIC against K. pneumonia>
50

$$$$

Challenge: State its MIC against K. pneumonia on Klebsiella pneumonia: PRT1493 (QQAECPGGCRNGGFCNERRICECPDGFHGPHCE; listed as Homo sapiens)
Response given: 12.5

###

# Test system: E. coli DH5α
# procedure text: Antibacterial activity: MIC and growth curve against E. coli DH5α in 96-well plate
# Assay type: cell-based
# condition parameters: minimal inhibitory concentration against E. coli DH5α; 96-well plate, 5×10^5 CFU/mL, 37° C., judged after 8 h
property measured: MIC (µg/mL)
Give your result in µg/mL as a bare value.

>  <substance>
PRT1161 (DIDECASHPCKNGATCIDQPGNYFCQCVPPFKVVDGFSCL; listed as Homo sapiens)

>  <property measured>
MIC

>  <recorded result>
25

$$$$
>  <substance>
PRT1237 (LGPGCLDNCRGHGDCLREQCICDPGYSGPNCY; listed as Homo sapiens)

>  <property measured>
MIC

>  <recorded result>
12.5

$$$$
>  <substance>
PRT913 (VINGCKGKPCKNGGTCAVASNTARGFICKCPAGFEGATCE; listed as Homo sapiens)

>  <property measured>
MIC

>  <recorded result>
12.5

$$$$

Challenge: Observed MIC on E. coli DH5α for PRT1190 (DLNYCGSHHPCTNGGTCINAEPDQYRCTCPDGYSGRNCE; listed as Homo sapiens) , please.
Response given: 50

###

# Tested on: Proteus mirabilis
# procedure text: MIC against Gram-negative bacteria: Proteus mirabilis
# Format: cell-based
# condition parameters: 10 h cultivation at 37° C., 5×10^5 CFU/mL, two-fold serial dilution
property measured: MIC P. mirabilis (µg/mL)
Number only, in µg/mL; omit the unit.

Challenge: Form field: MIC P. mirabilis recorded for PRT1169 (RDSQCDEATCNNGGTCYDEGDAFKCMCPGGWEGTTCN; listed as Homo sapiens) with Proteus mirabilis (enter value)
Response given: 12.5
